test system: SNB-19 CNS; test: NCI tumour cell line growth inhibition, 48 h; in the data active = GI50 below about 0.43 µM; inactive = the rest
Return exactly one item of yes = active, no = inactive

Dear colleague, could you share the recorded outcome for `C=CC(=O)N1CCN(c2nc(OC[C@@H]3CCCN3C)nc3c(F)c(-c4nc(N)cc(C)c4C(F)(F)F)c(Cl)cc23)[C@@H](C)C1` when you have a moment? no

Dear colleague, could you share the recorded outcome for `O=C(/C=C/c1cccc(Cl)c1)c1ccccc1` when you have a moment? no

Dear colleague, could you share the recorded outcome for `Cc1cc(N)c2cc(NC(=O)/C=C\c3ccccc3Cl)ccc2n1` when you have a moment? no

Dear colleague, could you share the recorded outcome for `O=C1/C(=C/c2ccc([N+](=O)[O-])s2)Oc2ccc(Br)cc21` when you have a moment? yes

Dear colleague, could you share the recorded outcome for CCOC(=O)c1ccc(N[C@@H]2c3cc4c(cc3C(c3cc(OC)c(O)c(OC)c3)[C@H]3C(=O)OCC32)OCO4)cc1 (stereo not given in full) when you have a moment? yes

Dear colleague, could you share the recorded outcome for `Nc1ncnc2occ(-c3ccc(NC(=O)Nc4cccc(C(F)(F)F)c4)cc3)c12` when you have a moment? no

Dear colleague, could you share the recorded outcome for `O=C(NCCc1nccs1)c1cnc2c(S)cccc2c1` when you have a moment? no

Dear colleague, could you share the recorded outcome for Nc1ccccc1SC(CC(=O)c1ccccc1)c1c(Cl)cccc1Cl (stereo not given) when you have a moment? no

Dear colleague, could you share the recorded outcome for `Cc1c(C(=O)Nc2ccc(Oc3ccnc4cc(OCC(C)(C)O)ccc34)c(F)c2)c(=O)n(-c2ccccc2)n1C` when you have a moment? no

Dear colleague, could you share the recorded outcome for `N#C/C(=C\c1ccccn1)c1nc2ccccc2o1` when you have a moment? no
